System: RARb:RXRa (NR concentration 270 nM, RXRa partner concentration 90 nM)
Assay text: PBM binding z-score (relative to random genomic background probes); higher = stronger binding; sequences stand for … in GC…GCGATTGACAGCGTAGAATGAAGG
So basically, the class depends on measured PBM binding z-score, and the ranges are lowest = under 3, middle = from 3 up to 5, highest = 5 and over

>  <Ordered residues>
AGAATGAGATTACCAAAGATCAGGGAAACGCTTG

>  <Group>
lowest

$$$$

Query :: Classify this sequence: "CGAACAAGGTCACCAGGACAGTGAAGAGGTTGGA"
Result :: highest

Query :: Classify this sequence: "CCTTACGGGTAACGAGGTTATAGCACGACGAGCG"
Result :: lowest

Query :: Classify this sequence: "ATCGAAAGGTCCACGAGGTGAGTATACACCGTTT"
Result :: lowest

----------
Overview of reported PBM binding z-score across a group of sequences:
Tested on: RARb:RXRa (NR concentration 270 nM, RXRa partner concentration 90 nM)
Assay text: PBM binding z-score (relative to random genomic background probes); higher = stronger binding; sequences stand for … in GC…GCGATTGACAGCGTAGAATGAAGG

Known PBM binding z-score results, listed for orientation:
>  <Ordered residues>
CGAACTAGGTCTAAGGACAGTGAAAGGCGACGTA

>  <Tested system>
RARb:RXRa (NR concentration 270 nM, RXRa partner concentration 90 nM)

>  <Property name>
PBM binding z-score

>  <Recorded value>
0.287

$$$$
>  <Ordered residues>
AGAATGAGGTTACCAAAGTTCAGGGAAACGCTTG

>  <Tested system>
RARb:RXRa (NR concentration 270 nM, RXRa partner concentration 90 nM)

>  <Property name>
PBM binding z-score

>  <Recorded value>
3.81

$$$$
>  <Ordered residues>
TAGCCTAGGTTATGGGCCAGTATACCACGCGAAC

>  <Tested system>
RARb:RXRa (NR concentration 270 nM, RXRa partner concentration 90 nM)

>  <Property name>
PBM binding z-score

>  <Recorded value>
0.734

$$$$
>  <Ordered residues>
AATACAGGGTCACGAGGCCAGAGTAGGTACGAAT

>  <Tested system>
RARb:RXRa (NR concentration 270 nM, RXRa partner concentration 90 nM)

>  <Property name>
PBM binding z-score

>  <Recorded value>
5.07

$$$$
>  <Ordered residues>
GCTTACGGGTCCAAGGTTATAGCATGAATAGAAT

>  <Tested system>
RARb:RXRa (NR concentration 270 nM, RXRa partner concentration 90 nM)

>  <Property name>
PBM binding z-score

>  <Recorded value>
0.932

$$$$
>  <Ordered residues>
GGAACGAGGTCATTCGAGTTGATAGCATGGCGAT

>  <Tested system>
RARb:RXRa (NR concentration 270 nM, RXRa partner concentration 90 nM)

>  <Property name>
PBM binding z-score

>  <Recorded value>
4.9

$$$$
>  <Ordered residues>
CGTCCGAGGTCATAGGAGGTCAGTGAAGACAGAT

>  <Tested system>
RARb:RXRa (NR concentration 270 nM, RXRa partner concentration 90 nM)

>  <Property name>
PBM binding z-score

>  <Recorded value>
5.36

$$$$
>  <Ordered residues>
TATTCAGGGTCAAAGGCCAGAGTACGAATGTCGA

>  <Tested system>
RARb:RXRa (NR concentration 270 nM, RXRa partner concentration 90 nM)

>  <Property name>
PBM binding z-score

>  <Recorded value>
4.83

$$$$
>  <Ordered residues>
CCAGACAGGTGAGAAGGTAACTCAGCCTCGATTA

>  <Tested system>
RARb:RXRa (NR concentration 270 nM, RXRa partner concentration 90 nM)

>  <Property name>
PBM binding z-score

>  <Recorded value>
0.666

$$$$
>  <Ordered residues>
TAGCCTAGGTCGTTCAGGGGCCAGTATAGAAAGC

>  <Tested system>
RARb:RXRa (NR concentration 270 nM, RXRa partner concentration 90 nM)

>  <Property name>
PBM binding z-score

>  <Recorded value>
1.63

$$$$

Now for the sequence whose PBM binding z-score we want.
Query :: State the measured PBM binding z-score (RARb:RXRa (NR concentration 270 nM, RXRa partner concentration 90 nM)) of "GATACAGGGTCGGCTAGAGGCCAGAGTATGGAAA"
Result :: 1.56
